# TEST METHOD NOTES: In vivo bioavailability / PK after 1 mg/kg IV or 10 mg/kg PO
# Parameters: species or system Male ICR mice
# MEASUREMENT CONTEXT: male, ICR, mouse, plasma, oral, 10 mg/kg, 10 mg/kg PO, time 8 h, mouse#1-3; read-out: in vivo PK raw, level per mouse
# Procedure: In vivo bioavailability studies were performed by Pharmacology Discovery Services Taiwan, Ltd., (New Taipei City, Taiwan). Male ICR mice weighing 20—30 g were provided by BioLasco Taiwan (under Charles River Laboratories Licensee). Animals were acclimated for 3 days prior to use and were confirmed with good health. All animals were maintained in a hygienic environment with controlled temperature (20—24 °C), humidity (30%—70%) and 12 h light/dark cycles. […]
MEASURED ATTRIBUTE: concentration at 8 h
Respond with a number, then the unit of measure.

GET /value?item= `Cc1[nH]nc(-c2ccc(O)c(C)c2O)c1-c1nc2ccccc2s1` &field=concentration at 8 h returns 2.96 nM
